Target: A*0202 (Homo sapiens, UniProt P04439, D140Y/D185E/D98H/E176V/E277Q/G131W/G231S/I119L/I121R/I166T/I218V/L180W/L300P/L318F/N151K/N90K/P208A/P217A/Q67R/Q86G/Q94H/R138H/R169H/T345S)
Experiment: biochemical
Format: binding
pIC50: −log10 of the molar value. No end group written: not given here.
Output met for pIC50 not less than 7; output not met otherwise.

residue_string="FLGALKSFV [Peptide 1593.56]" class_assignment=met
residue_string="TAKLTIESV [Peptide 9013.0009]" class_assignment="not met"
residue_string="GLMIGVLVGVA [Peptide 9013.0345]" class_assignment=met
residue_string="VLAEAMSRV [Peptide 1516.10]" class_assignment=met

Task: Textbook exercise: given the entry RTLTLLSVV [Peptide 9013.0075] , state whether its pIC50 is greater than or equal to 7.
Result: not met

Task: Textbook exercise: given the entry MTSNPAIPV [Peptide 1539.03] , state whether its pIC50 is greater than or equal to 7.
Result: not met

Task: Textbook exercise: given the entry SLACSWGMVV [Peptide 1578.02] , state whether its pIC50 is greater than or equal to 7.
Result: met

Task: Textbook exercise: given the entry ALYSWFVNGT [Peptide 9013.0173] , state whether its pIC50 is greater than or equal to 7.
Result: met

Task: Textbook exercise: given the entry TVTTITVYV [Peptide 9013.0068] , state whether its pIC50 is greater than or equal to 7.
Result: met

Task: Textbook exercise: given the entry GLSLPVSPRL [Peptide 9013.0220] , state whether its pIC50 is greater than or equal to 7.
Result: not met
